condition: in o-xylene, 317.35 K
readout.kind: solubility (mole fraction)

INSERT INTO measurements (chemical_structure, readout_kind, readout_number) VALUES
  ('Nc1cccc(N)n1', 'solubility (mole fraction)', 0.00695);

---

condition: in isopropanol, 290.15 K
readout.kind: solubility (mole fraction)

INSERT INTO results (chemical_structure, readout_number) VALUES
  ('Nc1cccc(N)n1', 0.0565);

---

condition: in o-xylene, 285.55 K
readout.kind: solubility (mole fraction)

INSERT INTO results (chemical_structure, result) VALUES
  ('Nc1cccc(N)n1', 0.00201);

---

condition: in isopropanol, 319.25 K
readout.kind: solubility (mole fraction)

INSERT INTO measurements (chemical_structure, readout_number) VALUES
  ('Nc1cccc(N)n1', 0.159);

---

condition: in o-xylene, 357.05 K
readout.kind: solubility (mole fraction)

INSERT INTO measurements (chemical_structure, readout_kind, readout_number) VALUES
  ('Nc1cccc(N)n1', 'solubility (mole fraction)', 0.0292);

---

condition: in ethylbenzene, 361.15 K
readout.kind: solubility (mole fraction)

INSERT INTO measurements (chemical_structure, readout_number) VALUES
  ('Nc1cccc(N)n1', 0.00577);

---

condition: in isopropanol, 297.25 K
readout.kind: solubility (mole fraction)

INSERT INTO measurements (chemical_structure, readout_kind, readout_number) VALUES
  ('Nc1cccc(N)n1', 'solubility (mole fraction)', 0.0732);

---

condition: in isopropanol, 315.85 K
readout.kind: solubility (mole fraction)

INSERT INTO results (chemical_structure, readout_kind, result) VALUES
  ('Nc1cccc(N)n1', 'solubility (mole fraction)', 0.147);

---

condition: in ethanol, 293.55 K
readout.kind: solubility (mole fraction)

INSERT INTO assay_data (chemical_structure, readout_number) VALUES
  ('Nc1cccc(N)n1', 0.182);

---

condition: in ethylbenzene, 298.65 K
readout.kind: solubility (mole fraction)

INSERT INTO results (chemical_structure, readout_kind, result) VALUES
  ('Nc1cccc(N)n1', 'solubility (mole fraction)', 0.00066);

---

condition: in toluene, 281.25 K
readout.kind: solubility (mole fraction)

INSERT INTO results (chemical_structure, readout_number) VALUES
  ('Nc1cccc(N)n1', 0.00214);

---

condition: in toluene, 353.45 K
readout.kind: solubility (mole fraction)

INSERT INTO measurements (chemical_structure, readout_kind, readout_number) VALUES
  ('Nc1cccc(N)n1', 'solubility (mole fraction)', 0.0283);

Numbers sourced from BigSolDB 2.1.
